Please go through the items and note down their melting point.

query: Suppose we examine the compound `CCN(CC)CCNC(=O)c1cc(Cl)c(NC(=O)c2ccc3ccccc3c2)cc1OC` ; what melting point value has been reported?
result: 173 to 174 °C

query: I am curious: what melting point value has been reported for `CCC1(C(=O)C=Cc2ccc(OC)c(OC)c2)CC1` ?
result: 63 to 65 °C

query: Reported melting point, compound `NS(=O)(=O)c1ccccc1-c1ccccn1` : ____
result: 186 to 190 °C

query: Could you share which melting point value was measured for `CC(=O)NC[C@H]1CN(c2ccc(N3CCC(=C(C#N)C#N)CC3)c(F)c2)C(=O)O1` ?
result: 158 to 160 °C

query: Return reported melting point; argument: `CN(C)C(=O)Nc1ccc(Oc2ccc3ccccc3c2)c(C(F)(F)F)c1`
result: 210 to 211 °C

* * *

measurement-kind: melting point

query: What measured melting point goes with `COC(=O)c1ccc(-c2nc(-c3ccc(Oc4ccccc4)cc3)no2)cc1` ?
result: 112 to 113 °C

query: Item under review: `CN(Cc1cc(C(F)(F)F)cc(C(F)(F)F)c1)C(=O)c1cnc(CC#N)nc1-c1ccccc1` . Reported melting point?
result: 114 to 116 °C

query: Dear colleague, I am looking for the recorded melting point of the following compound: `CCCCc1ccc(C=Nc2ccc(C#N)cc2)cc1`
result: 38.1 to 38.7 °C

query: Data request, read-out melting point, for `Cc1cccc(NC(=O)Cn2c3c(c4c(Cl)c(Cl)ccc42)CCN(C(=O)OC(C)(C)C)CC3)c1C`
result: 232 to 233 °C

query: Return reported melting point; argument: `NS(=O)(=O)c1cc2c(s1)S(=O)(=O)CC(=S)N2`
result: 219 to 221 °C

* * *

Kindly state melting point for each of the entries shown.

query: Which value of melting point has been reported for `NCCc1nc(Cl)ccc1C(=O)O` in the records?
result: 158 to 160 °C

query: Quick one: melting point for `CC1=C(Nc2ccc(C3=NNC(=O)CC3)cc2)CCC1=O` ?
result: 284 to 285 °C

query: Record request: melting point value, item `OCc1cccc2c1nc(-c1c(F)cccc1F)n2Cc1c(F)cccc1F`
result: 157 to 158 °C

query: Report melting point for `Cn1cc2c(=O)c(C(=O)c3ccccc3)cn(C)c2n1` please.
result: 272 to 274 °C

query: Item under review: C[Si](C)(C)CC(O)(Cn1cncn1)c1ccccc1 (stereo unspecified) . Reported melting point?
result: 86 to 87 °C

query: Data request, read-out melting point, for `CCc1[nH]n(C2CCCC2)c2nc(-c3ccc(Cl)cc3O)nc(=O)c1-2`
result: > 300 °C

query: GET /values?readout=melting point&item= `Brc1csc(-c2cn([C@H]3CN4CCC3CC4)nn2)c1`
result: 106 °C

query: // lookup melting point for `CCN(CC)Cc1ccc2nc(-c3ccccc3F)cc(OCc3ccccc3)c2c1`
result: 51.2 to 51.5 °C

query: Value lookup for melting point; key = `O=Cc1cc(Cc2cccnc2)ccc1O`
result: 130 to 132 °C

query: For the compound shown here, COc1ccc2c(c1)C(N=Cc1ccc(O)c(OC)c1)CCO2 (stereo unspecified) , give the reported melting point.
result: 136 to 139 °C

query: Can you look up the measured melting point of CC(O)C#CC1CCC2C3CCC4CC(O)CCC4(C)C3CCC12C (stereo unspecified) for me?
result: 169 to 171 °C
